These measurements were taken from patent US20030236190A1.

- tgt: T1, Insulin receptor prepared according to Bass et al., 1996: soluble human insulin receptor-immunoglobulin heavy … (human, UniProt P06213 28-956)
- T1 construct: extracellular domain; Eu3+-labelled in TR-FRET; also called IR; sIR-Fc; not shown: immunoglobulin heavy chain constant domains that replace the transmembrane and i
- test-protocol: phage ELISA vs milk
Positions of bridges follow the written chain, without caps; N, C: chain ends. No end group written: not given here.
# if measured Ratio over Background < 1 fold: yes  # else: no

INSERT INTO measurements (binder, group) VALUES
  ('SSYGCDGFYLMLFSLGLVASQELEC (disulfide 5-25 (inferred)) [20C-3-A1-IGFR]', 'no'),
  ('GGTEVDFYRALERLVRGQLGL [20E23-3-D8-IGFR]', 'no'),
  ('LKDGFYDYFWQRLHLGS [NNRPγ-4-B11-IR]', 'no'),
  ('DSVGDNFYQLLESLVGGHGVG [20E28-3-D6-IGFR]', 'no'),
  ('RGKTAAVIVGRPADPFYHKLSELLQGG [26Hα-3-E8-IR]', 'no');

Strictly below 1 fold in Ratio over Background? QGNVLDFYGWIGRLLAKQGSD [20E2B-3-D12-IGFR]
yes

Identify whether the binder GCAVVEEAERSRGDPFYHKLSELIQGC (disulfide 2-27 (inferred)) [B6Hα-3-E7-IR] records Ratio over Background below 1 fold.
no

I wonder whether NYRRQVFNGNFYDWFDRQVFSLVTPG [142CA-3-D8-IGFR] has Ratio over Background below 1 fold. Can you tell?
no

Answer whether the binder VATSQGFYSGLSELLQGGGNV [20E2H-3-E12-IGFR] has Ratio over Background strictly less than 1 fold
yes

For TSEVQRRSQDNFYDWFVAQVA [A6S-3-E2-IR] , is the recorded Ratio over Background below the cut-off of 1 fold?
no
